Values compiled from PubChem BioAssay.

# assaySummary: 384-well plate pilot, post-Golgi transport modulator project, inhibition of yeast transport mutant growth (AID 636)
# testParameters: absorbance 615 nm, about 18 h, stronger effect = higher value
The source made the active and inactive calls. Cut-off read from the data, not from the text of the source: active = inhibition above about 31%; inactive = the rest.
I'd be grateful if you could share measured inhibition for these entries.

                                   compound  measuredparameter        resultvalue
0  CN(C)C(CNc1nnnn1-c1ccccc1)c1ccco1 (configuration not stated)         inhibition  -3.77% (inactive)
1          COc1ccccc1OCCOCCn1cnc2ccccc2c1=O         inhibition  -5.75% (inactive)
2    Cn1cccc1Cc1nnc(SCC(N)=O)n1-c1ccc(F)cc1         inhibition  -1.28% (inactive)
3  Cc1cccc(-n2c(=O)cc(N3CCN(c4ccc(F)cc4)CC3)[nH]c2=O)c1         inhibition  -2.13% (inactive)
4                 CN(C)C(=O)Oc1ccc[n+](C)c1         inhibition  -1.17% (inactive)

List reported inhibition for each of these compounds:
1. COc1cc(SC)ccc1C(=O)Nc1ccccc1C#N
2. Cc1cc2ccccc2c(=O)n1CC(=O)N(C)c1ccc(F)cc1
3. CCOC(=O)c1ccc(COC(=O)c2cc3ccccc3oc2=O)o1
4. CCN(CC)c1ccc(C(=O)n2cnc3ccccc32)cc1
5. COc1ccccc1OCc1ccc(C(=O)Nc2ccncc2)o1
6. COc1ccc(-n2nc3cc(C)c(N)c(Br)c3n2)cc1
7. Nc1nc(SCc2ccc(Cl)cc2Cl)n[nH]1

-7.4% (inactive)
-2.3% (inactive)
-5.89% (inactive)
-3.33% (inactive)
-3.07% (inactive)
-6.3% (inactive)
-7.47% (inactive)

Give inhibition for all compounds that follow.
1. CC(C)CN(CC(C)C)C(=O)CS(=O)(=O)Cc1ccccc1
2. CCOC(=O)N1CCC(n2c(=S)[nH]c3cc(OC)c(OC)cc3c2=O)CC1

["-5.75% (inactive)", "-4.16% (inactive)"]

Please supply inhibition for each of the following items, keeping them in order.
1. O=C(COc1ccccc1Cl)NCCCN1CCOCC1
2. Cc1cc(C(=O)Nc2nnc(C(F)(F)F)s2)no1
3. Cc1cccc(-n2ncc3c(N)ncnc32)c1

1. 3.15% (inactive)
2. -7.4% (inactive)
3. -4.67% (inactive)

Would you mind giving inhibition for every compound in the list below?
1. CC(=O)N1CCc2cc(S(=O)(=O)NCCC(=O)Nc3cc(C)cc(C)c3)ccc21
2. CC(C)NC(=O)c1ccccc1NC(=O)CCS(=O)(=O)Cc1ccccc1
3. CCOC(=O)C1CCCN(C(=O)Cc2ccc(OC)c(OC)c2)C1 (configuration not stated)
4. COc1ccc(C2C(C#N)=C(N)Oc3cc4c(cc32)OCO4)cc1 (configuration not stated)

["-4.93% (inactive)", "-1.64% (inactive)", "-6.85% (inactive)", "-5.07% (inactive)"]

I would be grateful if you could provide inhibition for each of the following entries.
1. CCCCOc1ccccc1C1C(C(N)=O)=C(C)Nc2nnnn21 (configuration not stated)
2. N#CC(C(=O)C1CCCCC1)c1nc2ccccc2[nH]1 (configuration not stated)

1: -3.9% (inactive); 2: 0.66% (inactive)

// each listed compound needs a value for inhibition
1. CCn1c(C)nc2cc(C(=O)OC(C(F)(F)C(F)F)C(F)(F)C(F)F)ccc21
2. CCC(C)c1ccc(NC(=O)C2CC2)cc1 (configuration not stated)

["-2.47% (inactive)", "-1.82% (inactive)"]

For each of the items listed, what is its inhibition?
1. Cc1cnc(C(=O)Nc2ccc(N3CCN(C(=O)OC(C)(C)C)CC3)cc2)cn1
2. CN(C)CC(=O)N1c2ccccc2CCc2ccc(NC(=O)c3ccc(N)cc3)cc21
3. COc1ccc(-c2noc(CSc3nc4ccccc4c(=O)n3-c3ccccc3)n2)cc1OC
4. CN(C)C(=O)CSc1nnc2sc3ccccc3n12

1. -5.84% (inactive)
2. -5.79% (inactive)
3. -9.04% (inactive)
4. -8.63% (inactive)

Record inhibition per entry; entries follow.
1. CCN(CC)CCNC(=O)c1ccc(NC(C)=O)cc1
2. Cc1ccc(-c2nn3c(C)nnc3s2)cc1N
3. CCCCSc1nnc([C@H](C)NC(=O)OC(C)(C)C)o1

-1.69% (inactive)
-7.47% (inactive)
0.14% (inactive)
